Field: protein stability index. Provide a value for each of the sequences that follow.
- Test system: Saccharomyces cerevisiae
- method: protein stability index of tFT-peptide fusion (C-terminal peptide) (PSI (0-1 scale)); higher = more stable (slower turnover)
- applied-conditions: genetic background: wild type; temperature: 30 C
Numbers only.

PCTRIPPLDSPL ... 0.718
YDFHWAYFHSLY ... 0.711

Dear colleague, could you please provide protein stability index for the sequences listed below?
1. DVLDCTLVEQGA
2. WPGICVWAGSPG
3. DSRPLASAVRLS

0.68
0.717
0.681

---

- System: Saccharomyces cerevisiae;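 further: PSI is a weighted mean of sequencing reads over stability bins, variants kept only with over 10 reads, mCherry proximal and sfGFP distal, peptide attached via GGGS linker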
- method: protein stability index of tFT-peptide fusion (C-terminal peptide) (PSI (0-1 scale)); higher = more stable (slower turnover)
- applied-conditions: genetic background: wild type; temperature: 30 C
Entry flag: 1.0 if protein stability index reaches 0.7; 0.0 if it does not.

Check out these entries, answers already filled in.
CGWFSVGLMVGG ... 0.0
SLFSFSLSLCSP ... 0.0
KTFPPVTLDFSS ... 0.0
LKQHDSNESASR ... 0.0
STGRLQLGNCLT ... 0.0

Confirm if protein stability index reported for the sequence CDLISNFFLIGV is 0.7 or above.
0.0

Reported protein stability index reaches at least 0.7 for ERRGAAGAGSTR ?
1.0
